From: patent US4396615A

- test_target: 5α-reductase
- protocol_summary: 5α-reductase assay of Moore and Wilson, with or without preincubation of enzyme with inhibitor and NADPH
- condition_details: first phase; from plot of t1/2 against 1/[Inhibitor] (FIG. 2); read-out: Ki of reversible combination of enzyme and inhibitor

chemical_smiles	Ki / nM
C=C1C[C@@H]2[C@H](CC[C@@]3(C)[C@H]2CC[C@]3(OC(C)=O)C(C)=O)[C@@]2(C)CCC(=O)C=C12	1250
